- Tgt: UniProt:P0ACC7
- Sequence (P0ACC7 whole entry): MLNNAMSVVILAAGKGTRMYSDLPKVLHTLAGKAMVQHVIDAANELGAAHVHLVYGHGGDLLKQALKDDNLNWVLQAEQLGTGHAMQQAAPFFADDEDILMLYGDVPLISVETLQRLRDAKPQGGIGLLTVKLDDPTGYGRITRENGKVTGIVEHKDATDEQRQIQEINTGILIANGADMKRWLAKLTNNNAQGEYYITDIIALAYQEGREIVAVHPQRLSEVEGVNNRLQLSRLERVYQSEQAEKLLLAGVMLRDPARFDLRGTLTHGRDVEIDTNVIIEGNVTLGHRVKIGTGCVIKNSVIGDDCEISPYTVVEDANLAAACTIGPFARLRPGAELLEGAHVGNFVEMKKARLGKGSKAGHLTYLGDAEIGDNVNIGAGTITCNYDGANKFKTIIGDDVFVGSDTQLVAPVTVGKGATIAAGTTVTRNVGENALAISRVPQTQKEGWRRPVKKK
Recorded endpoint: pIC50
Entry type: numeric. Quantity: pIC50, the -log10 of concentration in molar units.

stdin: What pIC50 appears in the records for this compound with UniProt:P0ACC7? Cc1c(O)c(O)c(O)c(C=O)c1-c1cc2c(C=O)c(C)c(O)c(O)c2o1 [(II)]
stdout: 6.00
